- assayed_target: Fc-fusion protein of human PSMA (hPSMA-Fc) (Homo sapiens)
- Construct: purchased Acro Biosystems PSA-H5264
- method_summary: Surface plasmon resonance assay (Biacore T200, single cycle kinetic)
- Assay type: binding
- recorded_conditions: PSMA SPR assay, hPSMA-Fc, 25° C.; pKD category; read-out: pKD CAT (converted)
Bridge positions count the residues as written; N and C are the ends. Square brackets hold non-standard residues; d marks the D form. Peptide text beside a SMILES is read from it. Phe(4-Cl) = N[C@@H](Cc1ccc(Cl)cc1)C(=O)O; Tle = CC(C)(C)[C@H](N)C(=O)O; Nle = CCCC[C@H](N)C(=O)O; Aib = CC(C)(N)C(=O)O
assay_metric: Kd

1) CCCC[C@H](NC(=O)[C@@H]1CSSC[C@H](NC(=O)[C@H](Cc2ccccc2)NC(=O)[C@H](C)NC(=O)[C@@H](NC(C)=O)[C@@H](C)O)C(=O)N[C@@H](CCCCN)C(=O)N[C@@H](CCCNC(=N)N)C(=O)N[C@@H](C)C(=O)N[C@@H](C)C(=O)N1)C(=O)N[C@H](C(=O)N[C@@H](CC(=O)O)C(N)=O)[C@@H](C)O [PSM-0335] (Ac-TAFCKRAAC[Nle]TD-NH2; disulfide 4-9) :: 0.0126 to 0.126 µM

Next compound, Kd to be filled in.
Query block: Look at this compound and give its reported Kd. CC(=O)N[C@H](C(=O)NC(C)(C)C(=O)N[C@@H](Cc1ccc(Cl)cc1)C(=O)N[C@H]1CSSC[C@@H](C(=O)N[C@H](C(=O)N[C@H](C(N)=O)[C@@H](C)O)C(C)(C)C)NC(=O)[C@H](CC(N)=O)NC(=O)C(C)(C)NC(=O)[C@H](CCCNC(=N)N)NC(=O)[C@H](CCCCN)NC1=O)[C@@H](C)O [PSM-0336] (Ac-T[Aib][Phe(4-Cl)]CKR[Aib]NC[Tle]T-NH2; disulfide 4-9)
Result block: < 0.0126 µM

* * *

- assayed_target: Fc-fusion protein of human PSMA (hPSMA-Fc) (Homo sapiens, UniProt Q04609)
- Construct: purchased Acro Biosystems PSA-H5264
- Sequence (Q04609 44-750 limits assumed): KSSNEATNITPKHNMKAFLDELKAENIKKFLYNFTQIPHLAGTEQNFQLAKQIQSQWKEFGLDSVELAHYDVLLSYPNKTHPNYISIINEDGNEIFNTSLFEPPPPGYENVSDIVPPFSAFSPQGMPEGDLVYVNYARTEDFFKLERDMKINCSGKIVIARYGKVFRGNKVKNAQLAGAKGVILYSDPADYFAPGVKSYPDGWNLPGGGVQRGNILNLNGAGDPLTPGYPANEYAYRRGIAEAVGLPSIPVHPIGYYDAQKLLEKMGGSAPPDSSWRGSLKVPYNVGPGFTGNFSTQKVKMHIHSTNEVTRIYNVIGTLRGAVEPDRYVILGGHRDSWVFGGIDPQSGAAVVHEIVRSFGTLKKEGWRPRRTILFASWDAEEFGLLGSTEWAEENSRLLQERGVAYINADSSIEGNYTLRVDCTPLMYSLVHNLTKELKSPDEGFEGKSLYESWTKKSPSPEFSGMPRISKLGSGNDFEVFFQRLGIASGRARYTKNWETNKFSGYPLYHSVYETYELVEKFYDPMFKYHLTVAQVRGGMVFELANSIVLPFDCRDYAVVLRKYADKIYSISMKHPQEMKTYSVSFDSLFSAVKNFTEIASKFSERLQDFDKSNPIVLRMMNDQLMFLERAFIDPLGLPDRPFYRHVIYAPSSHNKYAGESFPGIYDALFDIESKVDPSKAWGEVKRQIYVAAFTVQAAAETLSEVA
- method_summary: Surface plasmon resonance assay (Biacore T200, single cycle kinetic)
- Assay type: binding
- recorded_conditions: PSMA SPR assay, hPSMA-Fc, 25° C.; pKD category; read-out: pKD CAT (converted)
Numbered stars: 1 amine (or outer) side, 2 acyl side, 3 side chain; on linkers, the order of the positions; unused ones are H or OH. Bridge positions count the residues as written; N and C are the ends. Square brackets hold non-standard residues; d marks the D form. Peptide text beside a SMILES is read from it. * marks the point of attachment. DOTA = O=C(O)CN1CCN(CC(=O)O)CCN(CC(=O)*)CCN(CC(=O)O)CC1; Phe(4-Cl) = N[C@@H](Cc1ccc(Cl)cc1)C(=O)O; Arg(Me) = CNC(=N)NCCC[C@H](N)C(=O)O; X1 = O=C(CC1CCN([*:1])CC1)[*:2]; Tle = CC(C)(C)[C@H](N)C(=O)O; Aib = CC(C)(N)C(=O)O
assay_metric: Kd

1) CC(=O)N[C@H](C(=O)NC(C)(C)C(=O)N[C@@H](Cc1ccccc1)C(=O)N[C@H]1CSSC[C@@H](C(=O)N[C@H](C(=O)N[C@H](C(=O)N[C@H](CCCCNC(=O)CN2CCN(CC(=O)O)CCN(CC(=O)O)CCN(CC(=O)O)CC2)C(N)=O)[C@@H](C)O)C(C)(C)C)NC(=O)[C@H](CC(N)=O)NC(=O)C(C)(C)NC(=O)[C@H](CCCNC(=N)N)NC(=O)[C@H](CCCCN)NC1=O)[C@@H](C)O [PSM-0288] (Ac-T[Aib]FCKR[Aib]NC[Tle]T[dK](DOTA)-NH2; disulfide 4-9) :: < 12.6 nM

Next molecule, Kd to be filled in.
Query block: Look at this molecule and give its reported Kd. CNC(=N)NCCC[C@@H]1NC(=O)[C@H](CCCCN)NC(=O)[C@@H](NC(=O)[C@H](Cc2ccc(Cl)cc2)NC(=O)C(C)(C)NC(=O)[C@@H](NC(=O)CC2CCN(C(=O)CN3CCN(CC(=O)O)CCN(CC(=O)O)CCN(CC(=O)O)CC3)CC2)[C@@H](C)O)CSSC[C@@H](C(=O)N[C@H](C(=O)N[C@H](C(N)=O)[C@@H](C)O)C(C)(C)C)NC(=O)[C@H](CC(N)=O)NC(=O)C(C)(C)NC1=O [PSM-0351] ({DOTA}-[X1]T[Aib][Phe(4-Cl)]CK[Arg(Me)][Aib]NC[Tle]T-NH2; disulfide 5-10)
Result block: < 12.6 nM

* * *

- Tested on: PC3-PIP tumor model
- Set-up: species or system mice
- recorded_conditions: mouse, in vivo
Numbered stars: 1 amine (or outer) side, 2 acyl side, 3 side chain; on linkers, the order of the positions; unused ones are H or OH. Bridge positions count the residues as written; N and C are the ends. Square brackets hold non-standard residues; d marks the D form. Side chains are listed from the residue outwards. Peptide text beside a SMILES is read from it. * marks the point of attachment. X2 = O=C(O)CN1CCN(CC(=O)O)CCN([C@H](CCC(=O)*)C(=O)O)CCN(CC(=O)O)CC1; DOTA = O=C(O)CN1CCN(CC(=O)O)CCN(CC(=O)*)CCN(CC(=O)O)CC1; Phe(3-Cl) = N[C@@H](Cc1cccc(Cl)c1)C(=O)O; Phe(4-Cl) = N[C@@H](Cc1ccc(Cl)cc1)C(=O)O; Arg(Me) = CNC(=N)NCCC[C@H](N)C(=O)O; X1 = O=C(CC1CCN([*:1])CC1)[*:2]; Lys(Me) = CNCCCC[C@H](N)C(=O)O; Tle = CC(C)(C)[C@H](N)C(=O)O; AEEA = NCCOCCOCC(=O)O; Aib = CC(C)(N)C(=O)O
Could you please report measured AUC ratio [T/K] for the items listed next?
Give bare numbers.

1. CNCCCC[C@@H]1NC(=O)[C@@H](NC(=O)[C@H](Cc2ccc(Cl)cc2)NC(=O)C(C)(C)NC(=O)[C@@H](NC(=O)CC2CCN(C(=O)CN3CCN(CC(=O)O)CCN(CC(=O)O)CCN(CC(=O)O)CC3)CC2)[C@@H](C)O)CSSC[C@@H](C(=O)N[C@H](C(=O)N[C@H](C(N)=O)[C@@H](C)O)C(C)(C)C)NC(=O)[C@H](CC(N)=O)NC(=O)C(C)(C)NC(=O)[C@H](CCCNC(=N)NC)NC1=O [PSM-0194] ({DOTA}-[X1]T[Aib][Phe(4-Cl)]C[Lys(Me)][Arg(Me)][Aib]NC[Tle]T-NH2; disulfide 5-10) :: 6.7

Next molecule, AUC ratio [T/K] to be filled in.
Query block: Look at this molecule and give its reported AUC ratio [T/K]. CC(=O)N[C@H](C(=O)NC(C)(C)C(=O)N[C@@H](Cc1cccc(Cl)c1)C(=O)N[C@H]1CSSC[C@@H](C(=O)N[C@H](C(=O)N[C@H](C(N)=O)[C@@H](C)O)C(C)(C)C)NC(=O)[C@H](CC(N)=O)NC(=O)[C@H](CCCCNC(=O)COCCOCCNC(=O)CC[C@H](C(=O)O)N2CCN(CC(=O)O)CCN(CC(=O)O)CCN(CC(=O)O)CC2)NC(=O)[C@H](CCCNC(=N)N)NC(=O)[C@H](CCCCN)NC1=O)[C@@H](C)O [PSM-0301] (Ac-T[Aib][Phe(3-Cl)]CKRK([AEEA-X2])NC[Tle]T-NH2; disulfide 4-9)
Result block: 0.45

* * *

Could you please report measured Kd for the items listed next?
- assayed_target: Fc-fusion protein of human PSMA (hPSMA-Fc) (Homo sapiens)
- Construct: purchased Acro Biosystems PSA-H5264
- method_summary: Surface plasmon resonance assay (Biacore T200, single cycle kinetic)
- Format: binding
- recorded_conditions: pKD category for PSMA SPR activity assay, hPSMA-Fc, 25° C.; read-out: pKD CAT (converted)
Numbered stars: 1 amine (or outer) side, 2 acyl side, 3 side chain; on linkers, the order of the positions; unused ones are H or OH. Bridge positions count the residues as written; N and C are the ends. Square brackets hold non-standard residues; d marks the D form. Side chains are listed from the residue outwards. Peptide text beside a SMILES is read from it. * marks the point of attachment. X3 = O=C(O)CN1CCN(CC(=O)O)CCN(CC(=O)NCCCOCCOCCOCCCN*)CCN(CC(=O)O)CC1; DOTA = O=C(O)CN1CCN(CC(=O)O)CCN(CC(=O)*)CCN(CC(=O)O)CC1; Phe(4-Cl) = N[C@@H](Cc1ccc(Cl)cc1)C(=O)O; X1 = O=C(CC1CCN([*:1])CC1)[*:2]; Cit = NC(=O)NCCC[C@H](N)C(=O)O; Suc = O=C(CCC(=O)[*:2])[*:1]; Tle = CC(C)(C)[C@H](N)C(=O)O; Aib = CC(C)(N)C(=O)O; Guanidino = N=C(N)N*

Parameters: items (list). Returns: Kd for each item.
1. CC(=O)N[C@H](C(=O)NC(C)(C)C(=O)N[C@@H](Cc1ccc(Cl)cc1)C(=O)N[C@H]1CSSC[C@@H](C(=O)N[C@H](C(=O)N[C@H](C(N)=O)[C@@H](C)O)C(C)(C)C)NC(=O)[C@H](CCC(=O)O)NC(=O)C(C)(C)NC(=O)[C@H](CCCNC(N)=O)NC(=O)[C@H](CCCCN)NC1=O)[C@@H](C)O [PSM-0496] (Ac-T[Aib][Phe(4-Cl)]CK[Cit][Aib]EC[Tle]T-NH2; disulfide 4-9)
2. C[C@@H](O)[C@H](NC(=O)CCC(=O)NCCCOCCOCCOCCCNC(=O)CN1CCN(CC(=O)O)CCN(CC(=O)O)CCN(CC(=O)O)CC1)C(=O)NC(C)(C)C(=O)N[C@@H](Cc1ccccc1)C(=O)N[C@H]1CSSC[C@@H](C(=O)N[C@H](C(=O)N[C@H](C(=O)N[C@@H](CC(=O)O)C(N)=O)[C@@H](C)O)C(C)(C)C)NC(=O)[C@H](CC(N)=O)NC(=O)C(C)(C)NC(=O)[C@H](CCCNC(=N)N)NC(=O)[C@H](CCCCN)NC1=O [PSM-0398] ({X3-Suc}-T[Aib]FCKR[Aib]NC[Tle]TD-NH2; disulfide 4-9)
3. C[C@@H](O)[C@H](NC(=O)[C@@H](NC(=O)[C@@H]1CSSC[C@H](NC(=O)[C@H](Cc2ccc(Cl)cc2)NC(=O)C(C)(C)NC(=O)CC2CCN(C(=O)CN3CCN(CC(=O)O)CCN(CC(=O)O)CCN(CC(=O)O)CC3)CC2)C(=O)N[C@@H](CCCCN)C(=O)N[C@@H](CCC(=O)NC(=N)N)C(=O)NC(C)(C)C(=O)N[C@@H](CC(N)=O)C(=O)N1)C(C)(C)C)C(N)=O [PSM-0489] ({DOTA}-[X1][Aib][Phe(4-Cl)]CKE(Guanidino)[Aib]NC[Tle]T-NH2; disulfide 4-9)

Result block:
["12.6 to 126 nM", "< 12.6 nM", "< 12.6 nM"]

Parameters: items (list). Returns: Kd for each item.
1. CC(=O)N[C@H](C(=O)NC(C)(C)C(=O)N[C@@H](Cc1ccccc1)C(=O)N[C@H]1CSSC[C@@H](C(=O)N[C@H](C(=O)N[C@H](C(N)=O)[C@@H](C)O)C(C)(C)C)NC(=O)[C@H](CC(N)=O)NC(=O)[C@H](CCCCNC(=O)CCC(=O)NCCCOCCOCCOCCCNC(=O)CN2CCN(CC(=O)O)CCN(CC(=O)O)CCN(CC(=O)O)CC2)NC(=O)[C@H](CCCNC(=N)N)NC(=O)[C@H](CCCCN)NC1=O)[C@@H](C)O [PSM-0465] (Ac-T[Aib]FCKRK([Suc-X3])NC[Tle]T-NH2; disulfide 4-9)
2. CC(=O)NC(C)(C)C(=O)N[C@@H](Cc1ccc(Cl)cc1)C(=O)N[C@H]1CSSC[C@@H](C(=O)N[C@H](C(=O)N[C@H](C(=O)N[C@H](CCCCNC(=O)CN2CCN(CC(=O)O)CCN(CC(=O)O)CCN(CC(=O)O)CC2)C(N)=O)[C@@H](C)O)C(C)(C)C)NC(=O)[C@H](CC(N)=O)NC(=O)C(C)(C)NC(=O)[C@H](CCCNC(=N)N)NC(=O)[C@H](CCCCN)NC1=O [PSM-0404] (Ac-[Aib][Phe(4-Cl)]CKR[Aib]NC[Tle]T[dK](DOTA)-NH2; disulfide 3-8)

Result block:
< 12.6 nM
< 12.6 nM
